Exercise: state measured IC50 for each of the compounds provided.
# TARGET_UNDER_TEST: serotonin 5-HT1 receptors
# ASSAY_PROTOCOL: Binding to other brain receptors: serotonin 5-HT1
# STATED_CONDITIONS: negligible affinity

compound CCN(CC)c1ccc(S(=O)(=O)N2CCCCC2=O)cc1 , IC50 observed: 5 to 10 µM

compound O=C1CCCCN1S(=O)(=O)c1ccc(N2CCCCCC2)cc1 , IC50 observed: 5 to 10 µM

compound O=C1CCCCN1S(=O)(=O)c1ccc(N2CCCCC2)cc1 , IC50 observed: 5 to 10 µM

###

Below are compounds with their IC50 as measured on opiate receptors mu (Homo sapiens, UniProt P35372).
Sequence (P35372 whole entry): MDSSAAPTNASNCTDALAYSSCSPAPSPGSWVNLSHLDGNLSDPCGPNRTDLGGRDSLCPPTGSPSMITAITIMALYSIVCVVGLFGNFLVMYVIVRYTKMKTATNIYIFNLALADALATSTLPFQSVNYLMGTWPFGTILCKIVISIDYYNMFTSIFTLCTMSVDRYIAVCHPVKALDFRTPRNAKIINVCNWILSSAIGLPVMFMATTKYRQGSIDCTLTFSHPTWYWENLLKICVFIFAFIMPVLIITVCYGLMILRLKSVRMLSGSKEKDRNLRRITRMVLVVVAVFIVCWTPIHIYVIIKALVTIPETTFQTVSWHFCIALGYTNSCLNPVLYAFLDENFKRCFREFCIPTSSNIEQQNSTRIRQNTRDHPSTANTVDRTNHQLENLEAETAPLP

compound O=C1CCCCN1S(=O)(=O)c1ccc(N2CCCCC2)cc1 , IC50 observed: 5 to 10 µM

compound O=C1CCCCN1S(=O)(=O)c1ccc(N2CCCCCC2)cc1 , IC50 observed: 5 to 10 µM

compound CCN(CC)c1ccc(S(=O)(=O)N2CCCCC2=O)cc1 , IC50 observed: 5 to 10 µM

###

# TARGET_UNDER_TEST: dopamine receptors
# ASSAY_PROTOCOL: Binding to other brain receptors: dopamine
# STATED_CONDITIONS: negligible affinity
pIC50: −log10 of the molar value.
VALUE_KIND: pIC50

compound O=C1CCCCN1S(=O)(=O)c1ccc(N2CCCCC2)cc1 [Example 4] , pIC50 observed: 5.00 to 5.30

compound O=C1CCCCN1S(=O)(=O)c1ccc(N2CCCCCC2)cc1 [Example 5] , pIC50 observed: 5.00 to 5.30

compound CCN(CC)c1ccc(S(=O)(=O)N2CCCCC2=O)cc1 [Example 2] , pIC50 observed: 5.00 to 5.30

###

Exercise: state measured IC50 for each of the compounds provided.
# TARGET_UNDER_TEST: adrenoreceptors alpha2
# ASSAY_PROTOCOL: Binding to other brain receptors: adrenoreceptor alpha2
# STATED_CONDITIONS: negligible affinity

Query O=C1CCCCN1S(=O)(=O)c1ccc(N2CCCCC2)cc1 on adrenoreceptors alpha2; IC50 returned: 5 to 10 µM

Query O=C1CCCCN1S(=O)(=O)c1ccc(N2CCCCCC2)cc1 on adrenoreceptors alpha2; IC50 returned: 5 to 10 µM

Query CCN(CC)c1ccc(S(=O)(=O)N2CCCCC2=O)cc1 on adrenoreceptors alpha2; IC50 returned: 5 to 10 µM

###

pIC50: −log10 of the molar value.
VALUE_KIND: pIC50

Query O=C1CCCCN1S(=O)(=O)c1ccc(N2CCCCCC2)cc1 on UniProt P41145; pIC50 returned: 5.00 to 5.30

Query CCN(CC)c1ccc(S(=O)(=O)N2CCCCC2=O)cc1 on UniProt P41145; pIC50 returned: 5.00 to 5.30

Query O=C1CCCCN1S(=O)(=O)c1ccc(N2CCCCC2)cc1 on UniProt P41145; pIC50 returned: 5.00 to 5.30

###

# TARGET_UNDER_TEST: histamine receptors
# ASSAY_PROTOCOL: Binding to other brain receptors: histamine
# STATED_CONDITIONS: negligible affinity
# Text: 1) Binding to different brain receptors.
pIC50: −log10 of the molar value.
Exercise: state measured pIC50 for each of the molecules provided.

molecule CCN(CC)c1ccc(S(=O)(=O)N2CCCCC2=O)cc1 [Example 2] , pIC50 observed: 5.00 to 5.30

molecule O=C1CCCCN1S(=O)(=O)c1ccc(N2CCCCC2)cc1 [Example 4] , pIC50 observed: 5.00 to 5.30

molecule O=C1CCCCN1S(=O)(=O)c1ccc(N2CCCCCC2)cc1 [Example 5] , pIC50 observed: 5.00 to 5.30

###

Exercise: state measured Agonist action pD2 for each of the compounds provided.
# Test system: isolated guinea pig ileum
# ASSAY_PROTOCOL: Agonist action on isolated guinea pig ileum
# STATED_CONDITIONS: negative logarithm of the dose which produces 50% of maximum effect

Query O=C1CCCCN1S(=O)(=O)c1ccc(N2CCCCCC2)cc1 on isolated guinea pig ileum; Agonist action pD2 returned: < 5

Query COC(=O)C1=CCCN(C)C1 [Arecoline, arecoline, reference compound] on isolated guinea pig ileum; Agonist action pD2 returned: 6.68

Query CCN(CC)c1ccc(S(=O)(=O)N2CCCCC2=O)cc1 on isolated guinea pig ileum; Agonist action pD2 returned: < 5

Query O=C1CCCCN1S(=O)(=O)c1ccc(N2CCCCC2)cc1 on isolated guinea pig ileum; Agonist action pD2 returned: < 5

###

# TARGET_UNDER_TEST: Muscarinic receptor 1 (Rattus norvegicus)
# Sequence (P08482 1-460): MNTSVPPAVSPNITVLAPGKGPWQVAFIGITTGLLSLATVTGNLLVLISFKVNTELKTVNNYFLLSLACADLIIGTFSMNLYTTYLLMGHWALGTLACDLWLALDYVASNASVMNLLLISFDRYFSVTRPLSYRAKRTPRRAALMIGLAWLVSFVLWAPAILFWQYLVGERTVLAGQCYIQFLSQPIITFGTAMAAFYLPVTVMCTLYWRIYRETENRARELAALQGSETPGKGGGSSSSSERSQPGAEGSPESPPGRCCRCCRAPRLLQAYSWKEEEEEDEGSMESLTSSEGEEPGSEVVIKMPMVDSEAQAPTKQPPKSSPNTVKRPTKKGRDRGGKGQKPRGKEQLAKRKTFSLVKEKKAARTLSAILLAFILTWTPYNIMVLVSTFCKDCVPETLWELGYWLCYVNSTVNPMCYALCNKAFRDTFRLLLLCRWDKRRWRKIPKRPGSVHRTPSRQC
Exercise: state measured IC50 for each of the compounds provided.
Expressed in nM, but write only the number.

compound O=C1CCCCN1S(=O)(=O)c1ccc(N2CCCCCC2)cc1 , IC50 observed: 49

compound CCN(CC)c1ccc(S(=O)(=O)N2CCCCC2=O)cc1 , IC50 observed: 314

compound O=C1CCCCN1S(=O)(=O)c1ccc(N2CCCCC2)cc1 , IC50 observed: 128

###

Below are molecules with their pIC50 as measured on adrenoreceptors beta2 (Homo sapiens).
Sequence (P07550 whole entry): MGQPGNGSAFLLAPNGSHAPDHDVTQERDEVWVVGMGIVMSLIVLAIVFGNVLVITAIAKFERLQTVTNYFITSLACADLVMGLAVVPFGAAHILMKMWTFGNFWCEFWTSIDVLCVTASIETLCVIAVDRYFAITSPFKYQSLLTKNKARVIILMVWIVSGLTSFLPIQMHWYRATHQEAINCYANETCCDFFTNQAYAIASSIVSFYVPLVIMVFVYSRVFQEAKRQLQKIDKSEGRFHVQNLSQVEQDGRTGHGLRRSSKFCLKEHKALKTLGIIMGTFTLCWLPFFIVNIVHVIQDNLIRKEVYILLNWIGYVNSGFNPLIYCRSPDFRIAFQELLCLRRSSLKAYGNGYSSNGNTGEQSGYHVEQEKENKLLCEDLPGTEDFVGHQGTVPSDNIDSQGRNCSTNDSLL
pIC50: −log10 of the molar value.

Query CCN(CC)c1ccc(S(=O)(=O)N2CCCCC2=O)cc1 [Example 2] on adrenoreceptors beta2 (Homo sapiens); pIC50 returned: 5.00 to 5.30

Query O=C1CCCCN1S(=O)(=O)c1ccc(N2CCCCCC2)cc1 [Example 5] on adrenoreceptors beta2 (Homo sapiens); pIC50 returned: 5.00 to 5.30

Query O=C1CCCCN1S(=O)(=O)c1ccc(N2CCCCC2)cc1 [Example 4] on adrenoreceptors beta2 (Homo sapiens); pIC50 returned: 5.00 to 5.30

###

# TARGET_UNDER_TEST: adrenoreceptors beta1 (Homo sapiens, UniProt P08588)
# Sequence (P08588 whole entry): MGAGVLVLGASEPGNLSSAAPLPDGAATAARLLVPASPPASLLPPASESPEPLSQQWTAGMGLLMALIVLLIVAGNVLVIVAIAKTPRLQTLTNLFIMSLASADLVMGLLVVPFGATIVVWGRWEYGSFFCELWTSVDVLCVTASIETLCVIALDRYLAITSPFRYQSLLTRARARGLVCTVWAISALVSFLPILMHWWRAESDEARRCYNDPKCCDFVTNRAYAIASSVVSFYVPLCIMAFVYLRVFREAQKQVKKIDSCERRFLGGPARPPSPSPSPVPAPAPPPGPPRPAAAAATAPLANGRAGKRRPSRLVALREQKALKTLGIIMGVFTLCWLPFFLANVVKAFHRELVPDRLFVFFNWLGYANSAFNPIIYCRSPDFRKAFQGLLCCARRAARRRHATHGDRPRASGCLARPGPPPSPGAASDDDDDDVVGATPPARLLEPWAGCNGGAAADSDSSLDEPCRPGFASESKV
pIC50: −log10 of the molar value.
VALUE_KIND: pIC50

Query O=C1CCCCN1S(=O)(=O)c1ccc(N2CCCCCC2)cc1 on adrenoreceptors beta1 (Homo sapiens, UniProt P08588); pIC50 returned: 5.00 to 5.30

Query CCN(CC)c1ccc(S(=O)(=O)N2CCCCC2=O)cc1 on adrenoreceptors beta1 (Homo sapiens, UniProt P08588); pIC50 returned: 5.00 to 5.30

Query O=C1CCCCN1S(=O)(=O)c1ccc(N2CCCCC2)cc1 on adrenoreceptors beta1 (Homo sapiens, UniProt P08588); pIC50 returned: 5.00 to 5.30
